This section presents substances with their documented Kinase Inhibition Cyclin E/CDK2 IC30 values.
- measured target: CDK2/Cyclin E (Homo sapiens)
- Construct: 6xHis; made in house; host or cells: Sf9 insect cells (baculovirus co-expression)
- method summary: CDK2/Cyclin E kinase assay, phosphorylation of GST-Rb
- Type: biochemical
- experimental parameters: GST-pRb substrate, [ATP] = 100 μM

substance=SKRRLIFSKRKP observed_value="46 ± 33 µM"
substance=YHSKRRL observed_value=">200 µM"
substance="KRRLIFSK [reference compound]" observed_value=">200 µM"

// switching to the query substance
In one line, give reported Kinase Inhibition Cyclin E/CDK2 IC30 of the entry "HSKRRL" .
>200 µM

###

- measured target: CDK2/cyclin A (Homo sapiens, UniProt P20248)
- method summary: CDK2/cyclin A kinase assay, substrate pRb(773-928)
- Format: biochemical
- experimental parameters: multiple substitutions (Example 22); relative to SEQ ID No. 36 = 1; CDK2/cyclin A kinase assay, pRb substrate, [ATP] = 100 μM
Square brackets hold non-standard residues; d marks the D form. Phe(4-F) = N[C@@H](Cc1ccc(F)cc1)C(=O)O; Cit = NC(=O)NCCC[C@H](N)C(=O)O; Abu = CC[C@H](N)C(=O)O
This section presents substances with their documented Relative activity Kinase Inhibition values.
The response must contain the number and no unit.

Below: 2 substances and their reported Relative activity Kinase Inhibition.
substance="125 (H-AAKRRLA[Phe(4-F)]-NH2; SMILES CC(C)C[C@H](NC(=O)[C@H](CCCNC(=N)N)NC(=O)[C@H](CCCNC(=N)N)NC(=O)[C@H](CCCCN)NC(=O)[C@H](C)NC(=O)[C@H](C)N)C(=O)N[C@@H](C)C(=O)N[C@@H](Cc1ccc(F)cc1)C(N)=O) [compound 125]" observed_value=20
substance="122 (H-AA[Abu]RRLI[Phe(4-F)]-NH2; SMILES CC[C@H](NC(=O)[C@H](C)NC(=O)[C@H](C)N)C(=O)N[C@@H](CCCNC(=N)N)C(=O)N[C@@H](CCCNC(=N)N)C(=O)N[C@@H](CC(C)C)C(=O)N[C@H](C(=O)N[C@@H](Cc1ccc(F)cc1)C(N)=O)[C@@H](C)CC) [compound 122]" observed_value=60

In one line, give reported Relative activity Kinase Inhibition of the entry 126 (H-AA[Abu]RSLI[Phe(4-F)]-NH2; SMILES CC[C@H](NC(=O)[C@H](C)NC(=O)[C@H](C)N)C(=O)N[C@@H](CCCNC(=N)N)C(=O)N[C@@H](CO)C(=O)N[C@@H](CC(C)C)C(=O)N[C@H](C(=O)N[C@@H](Cc1ccc(F)cc1)C(N)=O)[C@@H](C)CC) [compound 126] .
14

In one line, give reported Relative activity Kinase Inhibition of the entry 124 (H-AAKR[Cit]LI[Phe(4-F)]-NH2; SMILES CC[C@H](C)[C@H](NC(=O)[C@H](CC(C)C)NC(=O)[C@H](CCCNC(N)=O)NC(=O)[C@H](CCCNC(=N)N)NC(=O)[C@H](CCCCN)NC(=O)[C@H](C)NC(=O)[C@H](C)N)C(=O)N[C@@H](Cc1ccc(F)cc1)C(N)=O) [compound 124] .
10

###

- measured target: CDK2/cyclin A (Homo sapiens)
- method summary: CDK2/cyclin A kinase assay, substrate pRb(773-928)
- Assay type: biochemical
- experimental parameters: Ala153 substitutions; relative to H-His-Ala-Lys-Arg-Arg-Leu-Ile-Phe-NH2 (=1); pRb substrate, [ATP] = 100 μM
- Description: Reactions were stopped on ice, followed by filtration through p81 filterplates (Whatman Polyfiltronics, Kent, UK).
Square brackets hold non-standard residues; d marks the D form. Nva = CCC[C@H](N)C(=O)O; Abu = CC[C@H](N)C(=O)O
reported endpoint: Relative activity Kinase Inhibition

Below: 3 substances and their reported Relative activity Kinase Inhibition.
substance="H-His-Gly-Lys-Arg-Arg-Leu-Ile Phe-NH2 (H-HGKRRLIF-NH2)" measured_target="CDK2/cyclin A (Homo sapiens)" reported_endpoint="Relative activity Kinase Inhibition" observed_value=0.1
substance="H-His-Abu-Lys-Arg-Arg-Leu-Ile Phe-NH2 (H-H[Abu]KRRLIF-NH2; SMILES CC[C@H](NC(=O)[C@@H](N)Cc1c[nH]cn1)C(=O)N[C@@H](CCCCN)C(=O)N[C@@H](CCCNC(=N)N)C(=O)N[C@@H](CCCNC(=N)N)C(=O)N[C@@H](CC(C)C)C(=O)N[C@H](C(=O)N[C@@H](Cc1ccccc1)C(N)=O)[C@@H](C)CC)" measured_target="CDK2/cyclin A (Homo sapiens)" reported_endpoint="Relative activity Kinase Inhibition" observed_value=5
substance="H-His-Val-Lys-Arg-Arg-Leu-Ile Phe-NH2 (H-HVKRRLIF-NH2)" measured_target="CDK2/cyclin A (Homo sapiens)" reported_endpoint="Relative activity Kinase Inhibition" observed_value=2

// switching to the query substance
In one line, give reported Relative activity Kinase Inhibition of the entry H-His-Nva-Lys-Arg-Arg.Leu-Ile Phe.NH2 (H-H[Nva]KRRLIF-NH2; SMILES CCC[C@H](NC(=O)[C@@H](N)Cc1c[nH]cn1)C(=O)N[C@@H](CCCCN)C(=O)N[C@@H](CCCNC(=N)N)C(=O)N[C@@H](CCCNC(=N)N)C(=O)N[C@@H](CC(C)C)C(=O)N[C@H](C(=O)N[C@@H](Cc1ccccc1)C(N)=O)[C@@H](C)CC) .
<0.1

###

This section presents sequences with their documented Kinase Inhibition Cyclin E/CDK2 % Inhibition values.
- measured target: CDK2/Cyclin E (Homo sapiens, UniProt P24864)
- Construct: 6xHis; made in house; host or cells: Sf9 insect cells (baculovirus co-expression)
- method summary: CDK2/Cyclin E kinase assay, phosphorylation of GST-Rb
- Type: biochemical
- experimental parameters: GST-pRb substrate, [ATP] = 100 μM
Give the value in % but do not write % after it.

In one line, give reported Kinase Inhibition Cyclin E/CDK2 % Inhibition of the entry SMTDFYHSKRRL (H-SMTDFYHSKRRL-NH2) .
40

In one line, give reported Kinase Inhibition Cyclin E/CDK2 % Inhibition of the entry "DFYASKRRLIFS" .
80

In one line, give reported Kinase Inhibition Cyclin E/CDK2 % Inhibition of the entry DFYHSKRR (H-DFYHSKRR-NH2) .
40

In one line, give reported Kinase Inhibition Cyclin E/CDK2 % Inhibition of the entry "DFYHSKRRLIF" .
75

In one line, give reported Kinase Inhibition Cyclin E/CDK2 % Inhibition of the entry KRRLIFSK [reference compound] .
60

In one line, give reported Kinase Inhibition Cyclin E/CDK2 % Inhibition of the entry "DFYHSARRLIFS" .
80

In one line, give reported Kinase Inhibition Cyclin E/CDK2 % Inhibition of the entry "FYHSKRRLIF" .
80

In one line, give reported Kinase Inhibition Cyclin E/CDK2 % Inhibition of the entry "YHSKRRLIF" .
80

In one line, give reported Kinase Inhibition Cyclin E/CDK2 % Inhibition of the entry DFYHSKARLIFS (H-DFYHSKARLIFS-NH2) .
25

###

- measured target: Cyclin A (Homo sapiens)
- Sequence (P20248 whole entry): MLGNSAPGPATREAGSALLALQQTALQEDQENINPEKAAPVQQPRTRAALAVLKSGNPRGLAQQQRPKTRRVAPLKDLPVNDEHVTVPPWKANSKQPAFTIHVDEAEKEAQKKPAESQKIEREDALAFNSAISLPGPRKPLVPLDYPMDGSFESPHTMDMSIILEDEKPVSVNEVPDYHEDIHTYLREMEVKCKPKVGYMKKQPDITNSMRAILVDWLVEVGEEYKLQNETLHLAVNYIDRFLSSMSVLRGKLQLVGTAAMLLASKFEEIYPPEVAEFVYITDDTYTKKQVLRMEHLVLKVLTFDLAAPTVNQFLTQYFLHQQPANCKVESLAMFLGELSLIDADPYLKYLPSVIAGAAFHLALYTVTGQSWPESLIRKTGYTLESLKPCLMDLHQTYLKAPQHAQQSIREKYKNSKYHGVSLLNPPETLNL
- method summary: Cyclin A binding assay, immobilised biotinyl-Ahx-[…]NH2
- experimental parameters: Ala153 substitutions; relative to H-His-Ala-Lys-Arg-Arg-Leu-Ile-Phe-NH2 (=1)
Square brackets hold non-standard residues; d marks the D form. Tle = CC(C)(C)[C@H](N)C(=O)O; Abu = CC[C@H](N)C(=O)O
This section presents substances with their documented Relative activity Cyclin A Binding values.
The response must contain the number and no unit.

Below: 3 substances and their reported Relative activity Cyclin A Binding.
substance="H-His-Phe-Lys-Arg-Arg-Leu-Ile Phe-NH2 (H-HFKRRLIF-NH2)" reported_endpoint="Relative activity Cyclin A Binding" observed_value=0.2
substance="H-His-Abu-Lys-Arg-Arg-Leu-Ile Phe-NH2 (H-H[Abu]KRRLIF-NH2; SMILES CC[C@H](NC(=O)[C@@H](N)Cc1c[nH]cn1)C(=O)N[C@@H](CCCCN)C(=O)N[C@@H](CCCNC(=N)N)C(=O)N[C@@H](CCCNC(=N)N)C(=O)N[C@@H](CC(C)C)C(=O)N[C@H](C(=O)N[C@@H](Cc1ccccc1)C(N)=O)[C@@H](C)CC)" reported_endpoint="Relative activity Cyclin A Binding" observed_value=1.3
substance="H-His-Bug-Lys-Arg-Arg-Leu-Ile Phe-NH2 (H-H[Tle]KRRLIF-NH2; SMILES CC[C@H](C)[C@H](NC(=O)[C@H](CC(C)C)NC(=O)[C@H](CCCNC(=N)N)NC(=O)[C@H](CCCNC(=N)N)NC(=O)[C@H](CCCCN)NC(=O)[C@@H](NC(=O)[C@@H](N)Cc1c[nH]cn1)C(C)(C)C)C(=O)N[C@@H](Cc1ccccc1)C(N)=O)" reported_endpoint="Relative activity Cyclin A Binding" observed_value=1.2

In one line, give reported Relative activity Cyclin A Binding of the entry H-His-Gly-Lys-Arg-Arg-Leu-Ile Phe-NH2 (H-HGKRRLIF-NH2) .
0.1

In one line, give reported Relative activity Cyclin A Binding of the entry H-His-Ile-Lys-Arg-Arg-Leu-Ile Phe-NH2 (H-HIKRRLIF-NH2) .
0.2

In one line, give reported Relative activity Cyclin A Binding of the entry H-His-Val-Lys-Arg-Arg-Leu-Ile Phe-NH2 (H-HVKRRLIF-NH2) .
1.7
